System: Aspergillus terreus
test description: Antimicrobial activity against Aspergillus terreus MTCC 1782 at 500 ug/ml after 72 hrs by cup plate method
Format: functional
run parameters: MTCC 1782, 72 h, read-out: IZ
Label no (0) if zone of inhibition at 500 µg/mL falls below 9 mm; label yes (1) in every other case.

compound: Nc1nc(=S)[nH]c2c1C(c1c(-c3ccccc3)[nH]c3ccccc13)C=C(c1ccccc1)O2 (configuration not stated)
target or test system: Aspergillus terreus
class assignment: no (0)
//
compound: Cc1ccc2[nH]c(-c3ccccc3)c(C3C=C(c4ccc(Cl)cc4)Oc4nc[nH]c(=O)c43)c2c1 (configuration not stated)
target or test system: Aspergillus terreus
class assignment: no (0)
//
compound: Nc1nc(=S)[nH]c2c1C(c1c(-c3ccccc3)[nH]c3ccc(Cl)cc13)C=C(c1ccc(Cl)cc1)O2 (configuration not stated)
target or test system: Aspergillus terreus
class assignment: no (0)
//
compound: N#Cc1c(N)c2c(N)c3c(nc2oc1=O)OC(c1ccc(Cl)cc1)=CC3c1c(-c2ccccc2)[nH]c2ccc(Cl)cc12 (configuration not stated)
target or test system: Aspergillus terreus
class assignment: yes (1)
//
compound: Cc1ccc2[nH]c(-c3ccccc3)c(C3C=C(c4ccc(Cl)cc4)Oc4[nH]c(=O)nc(N)c43)c2c1 (configuration not stated)
target or test system: Aspergillus terreus
class assignment: no (0)
//
compound: Cc1ccc(C2=CC(c3c(-c4ccccc4)[nH]c4ccccc34)c3c(nc4oc(=O)c(C#N)c(N)c4c3N)O2)cc1 (configuration not stated)
target or test system: Aspergillus terreus
class assignment: yes (1)
//
compound: O=c1[nH]cnc2c1C(c1c(-c3ccccc3)[nH]c3ccc(Cl)cc13)C=C(c1ccccc1)O2 (configuration not stated)
target or test system: Aspergillus terreus
class assignment: yes (1)
//
compound: Cc1ccc(C2=CC(c3c(-c4ccccc4)[nH]c4ccccc34)C(C#N)=C(N)O2)cc1 (configuration not stated)
target or test system: Aspergillus terreus
class assignment: no (0)
//
compound: Cc1ccc2[nH]c(-c3ccccc3)c(C3C=C(c4ccc(Cl)cc4)Oc4[nH]nc(N)c43)c2c1 (configuration not stated)
target or test system: Aspergillus terreus
class assignment: yes (1)
//
compound: Cc1ccc2[nH]c(-c3ccccc3)c(C3C=C(c4ccc(Cl)cc4)OC(N)=C3C#N)c2c1 (configuration not stated)
target or test system: Aspergillus terreus
class assignment: yes (1)
//
compound: N#Cc1c(N)c2c(N)c3c(nc2oc1=O)OC(c1ccccc1)=CC3c1c(-c2ccccc2)[nH]c2ccccc12 (configuration not stated)
target or test system: Aspergillus terreus
class assignment: no (0)
